- System: 931267-113-T-J1-PDC KRAS spheroid with HUVEC/MSC, viability;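 further: compound exposure lasted 7 days before the readout; 100% = DMSO vehicle control viability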
- experimentDescription: Anticancer human tumor 931267-113-T-J1-PDC patient-derived colon adenocarcinoma cell line growth inhibition [KRAS2]
- reportedConditions: second compound 1 µM; first compound 0.316 µM; stronger effect = lower value
# viability, T/C annotations
Quick reminder: number only, in %, skip the unit.

COC(=O)c1ccc2c(C(=Nc3ccc(N(C)C(=O)CN4CCN(C)CC4)cc3)c3ccccc3)c(O)[nH]c2c1 + CC1OCC2(CCN(c3cnc(Sc4ccnc(N)c4Cl)c(N)n3)CC2)C1N	44

Fill in viability, T/C for record CC1COCCN1c1cc(-c2ccnn2C)c2ccnc(-c3ccn[nH]3)c2n1 (stereo not drawn) + C=CC(=O)N1CCN(c2nc(=O)n(-c3c(C)ccnc3C(C)C)c3nc(-c4c(O)cccc4F)c(F)cc23)C(C)C1 21.1

State its viability, T/C: COc1cc2nccc(Oc3ccc(NC(=O)C4(C(=O)Nc5ccc(F)cc5)CC4)cc3)c2cc1OC + CC1OCC2(CCN(c3cnc(Sc4ccnc(N)c4Cl)c(N)n3)CC2)C1N 86.3
